Catalogue of molecules with associated MIC
Test system: Mycobacterium tuberculosis
Experiment: Antimycobacterial activity against ethambutol-resistant Mycobacterium tuberculosis ATCC 35837 by resazurin dye based fluorimetric method
Assay type: functional
Provide only the numeric value, understood in µg/mL.

Query block: # return recorded MIC for input COc1cc(/C=N/NC(=O)c2ccncc2)ccc1O [FTIVAZIDE]
Result block: 0.312

Query block: Answer with reported MIC of `O=C(N/N=C/c1ccc(CSc2nc3ccccc3[nH]2)cc1)c1ccncc1`
Result block: 0.156

Query block: Recall and state the measured MIC for `O=C(N/N=C/c1ccc(CSc2nc3ccccc3s2)cc1)c1ccncc1` .
Result block: 0.312

Query block: Look up and state reported MIC for `O=C(N/N=C/c1ccc(CSc2nc3ccccc3o2)cc1)c1ccncc1`
Result block: 0.156
